experiment: AUC (0 to infinity) in cynomolgus monkey at 10 mg/kg, iv administered as single dose by LC-MS/MS method; assay type: ADME, organism-based, Macaca fascicularis; parameters: dose 10 mg/kg, route intravenous, time infinity; settings: plasma
ATTRIBUTE MEASURED: AUC(0-inf) (ng·h/mL)

smiles_text=C[C@H]1O[C@@H](O[C@H]2[C@H](O)[C@@H](O)[C@@H](O[C@H]3[C@H](O)CN[C@@H]3CO)O[C@@H]2CO)[C@H](O)[C@@H](O)[C@@H]1O attribute_measured=AUC(0-inf) units_symbol=ng·h/mL readout_number=74500

---

experiment: AUClast in F344 rat at 1 mg/kg, po administered as single dose by LC-MS/MS method; format: ADME, organism-based; design: time 0 - last, dose 1 mg/kg, route oral; details: plasma
ATTRIBUTE MEASURED: AUC(0-t) (ng·h/mL)

smiles_text=C[C@H]1O[C@@H](O[C@H]2[C@H](O)[C@@H](O)[C@@H](O[C@H]3[C@H](O)CN[C@@H]3CO)O[C@@H]2CO)[C@H](O)[C@@H](O)[C@@H]1O readout_number=110

---

assay: AUC (0 to infinity) in F344 rat at 10 mg/kg, po administered as single dose by LC-MS/MS method; assay type: ADME, organism-based; design: time infinity, dose 10 mg/kg, route oral; conditions: plasma
ATTRIBUTE MEASURED: AUC(0-inf) (ng·h/mL)

smiles_text=C[C@H]1O[C@@H](O[C@H]2[C@H](O)[C@@H](O)[C@@H](O[C@H]3[C@H](O)CN[C@@H]3CO)O[C@@H]2CO)[C@H](O)[C@@H](O)[C@@H]1O readout_number=1080

---

assay: Ratio of drug level in blood to plasma in human after 5 mins; assay type: ADME
ATTRIBUTE MEASURED: blood plasma ratio at 5 min

smiles_text=C[C@H]1O[C@@H](O[C@H]2[C@H](O)[C@@H](O)[C@@H](O[14C@H]3[14C@H](O)[14CH2]N[14C@@H]3[14CH2]O)O[C@@H]2CO)[C@H](O)[C@@H](O)[C@@H]1O readout_number=0.521

---

experiment: AUC (0 to infinity) in F344 rat at 1 mg/kg, po administered as single dose by LC-MS/MS method; format: ADME, organism-based; parameters: dose 1 mg/kg, route oral, time infinity; settings: plasma
ATTRIBUTE MEASURED: AUC(0-inf) (ng·h/mL)

smiles_text=C[C@H]1O[C@@H](O[C@H]2[C@H](O)[C@@H](O)[C@@H](O[C@H]3[C@H](O)CN[C@@H]3CO)O[C@@H]2CO)[C@H](O)[C@@H](O)[C@@H]1O attribute_measured=AUC(0-inf) readout_number=115

---

experiment: Volume of distribution at steady state in cynomolgus monkey at 0.3 mg/kg, iv administered as single dose by LC-MS/MS method; format: ADME, organism-based, Macaca fascicularis; parameters: dose 0.3 mg/kg, route intravenous; details: in vivo, read-out: Vdss
ATTRIBUTE MEASURED: Vd (L/kg)

smiles_text=C[C@H]1O[C@@H](O[C@H]2[C@H](O)[C@@H](O)[C@@H](O[C@H]3[C@H](O)CN[C@@H]3CO)O[C@@H]2CO)[C@H](O)[C@@H](O)[C@@H]1O readout_number=0.233

---

assay: Tmax in F344 rat at 1 mg/kg, po administered as single dose by LC-MS/MS method; type: ADME, organism-based; set-up: dose 1 mg/kg, route oral; conditions: in vivo
ATTRIBUTE MEASURED: Tmax (min)

smiles_text=C[C@H]1O[C@@H](O[C@H]2[C@H](O)[C@@H](O)[C@@H](O[C@H]3[C@H](O)CN[C@@H]3CO)O[C@@H]2CO)[C@H](O)[C@@H](O)[C@@H]1O attribute_measured=Tmax units_symbol=min readout_number=25

---

assay: Ratio of drug level in blood to plasma in cynomolgus monkey after 5 mins; format: ADME, Macaca fascicularis
ATTRIBUTE MEASURED: blood plasma ratio at 5 min

smiles_text=C[C@H]1O[C@@H](O[C@H]2[C@H](O)[C@@H](O)[C@@H](O[14C@H]3[14C@H](O)[14CH2]N[14C@@H]3[14CH2]O)O[C@@H]2CO)[C@H](O)[C@@H](O)[C@@H]1O readout_number=0.595

---

test: AUClast in F344 rat at 3 mg/kg, iv administered as single dose by LC-MS/MS method; format: ADME, organism-based; parameters: time 0 - last, dose 3 mg/kg, route intravenous; conditions: plasma
ATTRIBUTE MEASURED: AUC(0-t) (ng·h/mL)

smiles_text=C[C@H]1O[C@@H](O[C@H]2[C@H](O)[C@@H](O)[C@@H](O[C@H]3[C@H](O)CN[C@@H]3CO)O[C@@H]2CO)[C@H](O)[C@@H](O)[C@@H]1O attribute_measured=AUC(0-t) readout_number=18700

---

test: Half life in cynomolgus monkey at 10 mg/kg, iv administered as single dose by LC-MS/MS method; type: ADME, organism-based, Macaca fascicularis; set-up: dose 10 mg/kg, route intravenous; conditions: in vivo
ATTRIBUTE MEASURED: half-life

smiles_text=C[C@H]1O[C@@H](O[C@H]2[C@H](O)[C@@H](O)[C@@H](O[C@H]3[C@H](O)CN[C@@H]3CO)O[C@@H]2CO)[C@H](O)[C@@H](O)[C@@H]1O attribute_measured=half-life result="30 h"

---

assay: Half life in F344 rat at 0.3 mg/kg, iv administered as single dose by LC-MS/MS method; format: ADME, organism-based; set-up: dose 0.3 mg/kg, route intravenous; conditions: in vivo
ATTRIBUTE MEASURED: half-life (h)

smiles_text=C[C@H]1O[C@@H](O[C@H]2[C@H](O)[C@@H](O)[C@@H](O[C@H]3[C@H](O)CN[C@@H]3CO)O[C@@H]2CO)[C@H](O)[C@@H](O)[C@@H]1O attribute_measured=half-life units_symbol=h readout_number=14.6

---

experiment: Volume of distribution at steady state in F344 rat at 1 mg/kg, iv administered as single dose by LC-MS/MS method; format: ADME, organism-based; set-up: dose 1 mg/kg, route intravenous; conditions: in vivo, read-out: Vdss
ATTRIBUTE MEASURED: Vd

smiles_text=C[C@H]1O[C@@H](O[C@H]2[C@H](O)[C@@H](O)[C@@H](O[C@H]3[C@H](O)CN[C@@H]3CO)O[C@@H]2CO)[C@H](O)[C@@H](O)[C@@H]1O attribute_measured=Vd result="0.237 L/kg"

---

assay: Volume of distribution at steady state in cynomolgus monkey at 10 mg/kg, iv administered as single dose by LC-MS/MS method; type: ADME, organism-based, Macaca fascicularis; set-up: dose 10 mg/kg, route intravenous; details: in vivo, read-out: Vdss
ATTRIBUTE MEASURED: Vd

smiles_text=C[C@H]1O[C@@H](O[C@H]2[C@H](O)[C@@H](O)[C@@H](O[C@H]3[C@H](O)CN[C@@H]3CO)O[C@@H]2CO)[C@H](O)[C@@H](O)[C@@H]1O attribute_measured=Vd result="0.217 L/kg"

---

assay: Cmax in F344 rat at 1 mg/kg, po administered as single dose by LC-MS/MS method; format: ADME, organism-based; set-up: dose 1 mg/kg, route oral; details: in vivo
ATTRIBUTE MEASURED: Cmax

smiles_text=C[C@H]1O[C@@H](O[C@H]2[C@H](O)[C@@H](O)[C@@H](O[C@H]3[C@H](O)CN[C@@H]3CO)O[C@@H]2CO)[C@H](O)[C@@H](O)[C@@H]1O result="45.5 ng/mL"

---

test: Oral bioavailability in F344 rat at 3 mg/kg administered as single dose by LC-MS/MS method; type: ADME, organism-based; details: in vivo
ATTRIBUTE MEASURED: bioavailability

smiles_text=C[C@H]1O[C@@H](O[C@H]2[C@H](O)[C@@H](O)[C@@H](O[C@H]3[C@H](O)CN[C@@H]3CO)O[C@@H]2CO)[C@H](O)[C@@H](O)[C@@H]1O result=1.73%

---

assay: AUClast in F344 rat at 10 mg/kg, po administered as single dose by LC-MS/MS method; assay type: ADME, organism-based; set-up: time 0 - last, dose 10 mg/kg, route oral; details: plasma
ATTRIBUTE MEASURED: AUC(0-t) (ng·h/mL)

smiles_text=C[C@H]1O[C@@H](O[C@H]2[C@H](O)[C@@H](O)[C@@H](O[C@H]3[C@H](O)CN[C@@H]3CO)O[C@@H]2CO)[C@H](O)[C@@H](O)[C@@H]1O attribute_measured=AUC(0-t) readout_number=1050

---

assay: Volume of distribution at steady state in cynomolgus monkey at 3 mg/kg, iv administered as single dose by LC-MS/MS method; type: ADME, organism-based, Macaca fascicularis; set-up: dose 3 mg/kg, route intravenous; details: in vivo, read-out: Vdss
ATTRIBUTE MEASURED: Vd (L/kg)

smiles_text=C[C@H]1O[C@@H](O[C@H]2[C@H](O)[C@@H](O)[C@@H](O[C@H]3[C@H](O)CN[C@@H]3CO)O[C@@H]2CO)[C@H](O)[C@@H](O)[C@@H]1O readout_number=0.262
